Target: human IDO1 protein (Homo sapiens)
Construct: purchased ChemPartner Lot; No. 20160706
Experiment: Enzymatic IDO1 assay (Absorbance 321 assay)
Assay type: biochemical
Conditions: 50 uM, average inhibition, Table S2
quantity_name: Avg_Inh (%) @ 50uM

a: CC(O)Cn1c(=O)c(=O)[nH]c2ccccc21 (stereo not drawn)
b: CCCC1CCc2c(c3ccccc3[nH]c2=O)O1 (stereo not drawn)
Query block: Lab note: record which item had the higher Avg_Inh (%) @ 50uM, a or b . Which one? Tell me its label.
Result block: b

###

Biological target: human IDO1 protein (Homo sapiens, UniProt P14902)
Construct: purchased ChemPartner Lot; No. 20160706
Sequence (P14902 whole entry): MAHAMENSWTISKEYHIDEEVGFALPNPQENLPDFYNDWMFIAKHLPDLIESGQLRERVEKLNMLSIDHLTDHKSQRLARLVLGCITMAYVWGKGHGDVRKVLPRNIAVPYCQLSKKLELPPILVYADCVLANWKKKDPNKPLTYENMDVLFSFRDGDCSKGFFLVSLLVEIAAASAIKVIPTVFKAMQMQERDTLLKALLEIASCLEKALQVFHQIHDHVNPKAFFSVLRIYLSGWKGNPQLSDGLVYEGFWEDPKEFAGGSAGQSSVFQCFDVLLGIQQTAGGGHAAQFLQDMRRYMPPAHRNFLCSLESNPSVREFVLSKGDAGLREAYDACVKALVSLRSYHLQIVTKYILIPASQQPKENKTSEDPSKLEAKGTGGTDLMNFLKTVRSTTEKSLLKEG
Experiment: Enzymatic IDO1 assay (Absorbance 321 assay)
Format: biochemical
Settings: background signal of the compound in the absorbance assay
quantity_name: Background (%)

Example results:
O=c1cnc2ccccc2n1Cc1cccc(Cl)c1 [DCI-010]    46.13
O=c1/c(=C/c2c(O)ccc3ccccc23)sc2n1CCCN=2 [DCI-073]    54.63
O=C(OCc1ccc(Cl)cc1)c1cc2ccccc2cc1O [DCI-003]    51.94
Cc1sc2ncnc(SCC(=O)Nc3ccc(S(N)(=O)=O)cc3)c2c1C [DCI-017]    48.33
Clc1ccc(N2COc3ccc4ccccc4c3C2)cc1 [DC-I028]    55.25

A: CC(=O)Nc1ccc(NC(=O)COc2ccc(Br)cc2C)cc1 [DCI-085]
B: Cc1cc(=O)c2ccc(C(F)(F)F)cc2[nH]1 [DCI-038]
Query block: Select the item whose Background (%) value is smaller, choosing between A and B . Record your answer as the label of the chosen record.
Result block: A
(A: 37.26%, B: 60.07%)

P: COc1cccc(-c2[nH]nc3c2C(c2ccccc2F)C(C#N)=C(N)O3)c1 (stereo not shown) [DCI-008]
Q: Cc1cccc(NC(=S)NC(=O)c2cc3ccccc3o2)n1 [DCI-036]
Query block: Decide: P or Q , by lowest recorded Background (%). Your answer should be the label attached to the chosen record.
Result block: P

###

Target: human IDO1 protein (Homo sapiens)
Construct: purchased ChemPartner Lot; No. 20160706
Assay: Enzymatic IDO1 assay (Absorbance 321 assay)
Assay type: biochemical
Conditions: background signal of the compound in the absorbance assay
Method: The standard assay mixture contained modified potassium phosphate buffer at pH 6.5, 100 μM L-tryptophan (Sigma, Cat. […] No. […]). […] Then the assay plate was read at OD321 kinetically in Spectramax. […] Fit the data in […]5.0 software to obtain IC50-values using Equation (2): (2) Y=Bottom+Top-Bottom/1+10^(logIC50-X)×HillSlope where Y stands for inhibition percentage and X stands for compound concentration. All determinations were carried out in duplicate.
quantity_name: Background (%)

O=C1c2ccccc2C(=O)N1CNCc1cc(=O)[nH]c(=O)[nH]1 [DCI-054]    48.55
O=C(COc1ccc2ccccc2c1)Nc1cccc(Cl)c1 [DCI-086]    50.53
Cc1ccc(C)c(NS(=O)(=O)c2ccc3ccccc3c2)c1 [DCI-096]    49.37

###

Target: human IDO1 protein (Homo sapiens, UniProt P14902)
Construct: purchased ChemPartner Lot; No. 20160706
Assay: Enzymatic IDO1 assay (Absorbance 321 assay)
Format: biochemical
Settings: background signal of the compound in the absorbance assay
Method: The standard assay mixture contained modified potassium phosphate buffer at pH 6.5, 100 μM L-tryptophan (Sigma, Cat. […] No. […]). […] Then the assay plate was read at OD321 kinetically in Spectramax. […] Fit the data in […]5.0 software to obtain IC50-values using Equation (2): (2) Y=Bottom+Top-Bottom/1+10^(logIC50-X)×HillSlope where Y stands for inhibition percentage and X stands for compound concentration. All determinations were carried out in duplicate.
quantity_name: Background (%)

Oc1cccc(C(O)CNCc2c(Cl)cccc2Cl)c1 (stereo not shown)    31.34
O=C(NCC1CCCO1)c1ccc(COc2ccc3ccccc3c2)cc1 (stereo not shown)    40.12
OC1Cc2ccccc2Sc2c(Cl)cccc21 (stereo not shown)    34.53
CC(O)CNCc1ccc(OCc2ccc3c(c2)OCCO3)cc1 (stereo not shown)    34.42
c1ccc2cc(OCc3nc4ccccc4s3)ccc2c1    44.08
Cc1nn(C)cc1CN(C)C(=O)c1cc2ccccc2oc1=O    54.16
Cc1ccc(C(C)C)cc1C(=O)CC1(O)C(=O)N(C)c2ccc(Br)cc21 (stereo not shown)    41.98
